# test target: T1, HLA-DRB1*0101 (human)
# T1 chain 1: not shown
# T1 chain 2: not shown
# protocol details: inhibition of 125I-labelled probe peptide binding to purified HLA-DR; gel filtration
# test conditions: remark: other sources report otherwise
quantity measured: binding affinity ratio (IC50 of standard peptide / IC50 of test peptide)
One number for each entry.

Previously resolved entries follow.
binder | quantitative result
GFFLLTRILTIPQSL (modifications not checked) [… (HBV ENV 181, 15-mer)] | 0.43
IVGLLGFAAPFTQCG (modifications not checked) [… (HBV POL 625, 15-mer)] | 0.02
HLSLRGLPVCAFSSA (modifications not checked) [… (HBV X 52, 15-mer)] | 1.3

Then this binder:
Task item: Supply binding affinity ratio (IC50 of standard peptide / IC50 of test peptide) value. Item: VGLLGFAAPFTQCGY (modifications not checked) [… (HBV POL 626, 15-mer)]
Reply: 0.047
